protocol_details: yeast display, Sf9 membrane polyspecificity reagent, FACS + sequencing; frameworks hold sequencing errors
measurement_type: polyreactivity (PSR sort gate)

1) QVQHVESGGGLVQAGGSLRLSCAASGRTFVNNAMGWYRQQPGKERELVAAITGSGGSTYYADSVKGRFTISRDNAKNTVYLLMNSLKPEDTAVYYCAKRLVGSRYLFDYWGQGTQVTVSS ... low polyreactivity
2) QVQLVESGGGLVQAGGSLRLSCAASRSTFFHYAMGWNRQAPGKERELVAAISSDGITNYADSVKGRFTISRDNAKNTVYLQMNILIPEDTAVYYCNAETVSTVGLGYWGQGTQVTVSS ... low polyreactivity
3) QVQLVESVGGLVQAGGSLRLSCAASGRTFGGNAMGWYRQAPGKERELVAVITGSGARTYYADSVKGRFTISRDNAKNTVYLQMNSLKPEDTAVYYCAAAGYSGQYRSYYWGQGTQVTVSS ... high polyreactivity
4) QVQLVESGGGIVQAGGSLRLSCAASGIISRVYAMGWYRQAPGKERELVAAISGSGGTTYYADSVKGRFTISRDNAKNTVYLQMNRLKPEDTAVDYCAARYKALYDYWGQGTQVTVSS ... high polyreactivity

Problem: Please report polyreactivity (PSR sort gate) for the following sequence: QVQLVESGGGLVQAGGRLRLSCAASGSTFFAYAMGWYRQAPGKQRELVAAITGRGSTYYADSVKGRFTISRDNAKNTVYLQMNSLKAEDTAVYYCAAQRSRRYYRLDFWGQGTQVTVSS
Solution: high polyreactivity

Problem: Item QVQLVESGGGLVQAGGSLRLSCAASVRTFYYYAMGWYRQAPGKERELVARISRGGSTNYADSVKGRFTISRDNAKNTVYLLMNSLKTEDTAVYYCAKSISYTGRYWGYDYWGQGTQVTVSS : provide polyreactivity (PSR sort gate)
Solution: high polyreactivity

Problem: Consider the sequence QVQLVESGGGLVQAGGSLRLSCAASGRLFIIYAMGWYRQAPGKERELVAAINRGATTNYADSVKGRFTISRDNAKYTVYLQMNSLKPEDTAVYYCAARGVAKLRRVGYWGQGTQVTVSS . State its measured polyreactivity (PSR sort gate).
Solution: high polyreactivity

Problem: Fill in reported polyreactivity (PSR sort gate) for this entry: QVQLVESGGGIVQAGGSLRLSCAASGIIFPVYAMGWYRQAPGKERELVAAISRSGGSTYYADSVKGRFTISRDNAKNNVYLQMNSLKPEDTAVYYCAARYVVGYSLSSYGYWGQGTQVTVSS
Solution: high polyreactivity

Problem: Check the records and state polyreactivity (PSR sort gate) for QVQLVESGGGLVQAGGSLRLSCAASGSTFDPNVMGWYRQAPGKERELVAAISSIGGSTYYADSVKGRFTISRDNAKNTVYLQMNSLNPQDTAVYYCAAGYPRFGYDYWGQGTQVTVSS
Solution: high polyreactivity

Problem: Note polyreactivity (PSR sort gate) for the sequence shown: QVQRVESGGGLVQAGGSRRLSCAASGSIFSAYAMGWYRQAPGKEREFVAAITRRGGNTYYADSVKGRFTISRDNAKNTVYLQMNSLKPDDTAVYYCAADAGGGPFDYSGQGTQVTVSS
Solution: low polyreactivity

Problem: Given the sequence QVQLVESGGGLVQAGGSLRLSCAASGSIFSQYVMGWYRQAPGKERELVAAISWSGGHTYYADSVKGRFTISRDNAKNTVYLQMNSLKPEDTAVYYCRAFFRRDYWGQGTQVTVSS , write its reported polyreactivity (PSR sort gate).
Solution: high polyreactivity

Problem: Identify polyreactivity (PSR sort gate) associated with the sequence QVQLVESGGGFVQAGGSLRLSCAASGIIFTLYTMGWYIQAPGKERELVASISTRGGSTYYADSVKGRFTISRDYAKNTVYLQMNSLKPEDTAVYYCAAQGGYPVWRYYYWGQGTQVTVSS
Solution: high polyreactivity
